Assay: viability of cells in the human mixed lymphocyte reaction, M.T.T. metabolism
Assay type: cell-based
Settings: peripheral blood lymphocytes, 50, 25, 12.5, 6.3, 3.1 and 1.6 μg/ml, read-out: viability in the human MLR
metric: viability

Exam item: So what does the record say about viability for C=C/C=C\C(C)C(OC(N)=O)C(C)C(O)C(C)C/C(C)=C\C(C)C(O)C(C)/C=C\C(O)CC1OC(=O)C(C)C(O)C1C (single isomer, unassigned) [Discodermolide, discodermolide] ?
Marked response: > 94%

----------
Assay: viability of cells in the human mixed lymphocyte reaction, M.T.T. metabolism
Assay type: cell-based
Details: peripheral blood lymphocytes, 25 μg/ml, read-out: % Viability (% viable cells as measured by M.T.T. metabolism)
metric: viability (%)
Express the result in % but write the number alone.

Exam item: What viability value was documented for this molecule, C=C/C=C\C(C)C(OC(N)=O)C(C)C(O)C(C)C/C(C)=C\C(C)C(O)C(C)/C=C\C(O)CC1OC(=O)C(C)C(O)C1C (single isomer, unassigned) [Discodermolide, discodermolide] ?
Marked response: 102

----------
Test: viability of cells in the human mixed lymphocyte reaction, M.T.T. metabolism
Format: cell-based
Settings: peripheral blood lymphocytes, 1.6 μg/ml, read-out: % Viability (% viable cells as measured by M.T.T. metabolism)
metric: viability (%)
Entry rule: numbers only, all in %.

Exam item: I have this compound here, C=C/C=C\C(C)C(OC(N)=O)C(C)C(O)C(C)C/C(C)=C\C(C)C(O)C(C)/C=C\C(O)CC1OC(=O)C(C)C(O)C1C (single isomer, unassigned) [Discodermolide, discodermolide] , and I need its recorded viability.
Marked response: 110

----------
Experiment: viability of cells in the human mixed lymphocyte reaction, M.T.T. metabolism
Type: cell-based
Details: peripheral blood lymphocytes, 3.1 μg/ml, read-out: % Viability (% viable cells as measured by M.T.T. metabolism)
metric: viability
Give the value; after it, write the unit.

Exam item: Requested read-out: viability. Entry: C=C/C=C\C(C)C(OC(N)=O)C(C)C(O)C(C)C/C(C)=C\C(C)C(O)C(C)/C=C\C(O)CC1OC(=O)C(C)C(O)C1C (single isomer, unassigned) [Discodermolide, discodermolide]
Marked response: 94%

----------
Experiment: murine lymphocyte viability assay (LCV), 3H-thymidine incorporation
Type: cell-based
Settings: mouse, splenocytes, 50 μg/ml; read-out: % LCV Control (percent of the control LCV response)
metric: viability (%)
Just the number please, in %, no unit attached.

Exam item: So what's the measured viability for this one? C=C/C=C\C(C)C(OC(N)=O)C(C)C(O)C(C)C/C(C)=C\C(C)C(O)C(C)/C=C\C(O)CC1OC(=O)C(C)C(O)C1C (single isomer, unassigned) [Discodermolide, discodermolide]
Marked response: 26

----------
Assay: viability of cells in the human mixed lymphocyte reaction, M.T.T. metabolism
Format: cell-based
Settings: peripheral blood lymphocytes, 0.4 μg/ml, read-out: % Viability (% viable cells as measured by M.T.T. metabolism)
metric: viability (%)
Lab book: enter the figure in %, no units written.

Exam item: Can you look up the measured viability of C=C/C=C\C(C)C(OC(N)=O)C(C)C(O)C(C)C/C(C)=C\C(C)C(O)C(C)/C=C\C(O)CC1OC(=O)C(C)C(O)C1C (single isomer, unassigned) [Discodermolide, discodermolide] for me?
Marked response: 115

----------
Test: viability of human PBL in the Con A and PHA stimulation assays
Assay type: cell-based
Details: peripheral blood lymphocytes, 50 and 25 μg/ml
Procedure: The pure compound discodermolide I, was tested for immunosuppressive effects on the MLR and LCV assays using murine splenocytes and in the human MLR and mitogen stimulation assays, using human peripheral blood lymphocytes (PBL). Cellular proliferation was determined using incorporation of ^3 H-thymidine.
metric: viability

Exam item: # query: viability of entry C=C/C=C\C(C)C(OC(N)=O)C(C)C(O)C(C)C/C(C)=C\C(C)C(O)C(C)/C=C\C(O)CC1OC(=O)C(C)C(O)C1C (single isomer, unassigned) [Discodermolide, discodermolide]
Marked response: > 91%

----------
Test: murine lymphocyte viability assay (LCV), 3H-thymidine incorporation
Assay type: cell-based
Conditions: mouse, splenocytes, 500 μg/ml; read-out: % LCV Control (percent of the control LCV response)
metric: viability

Exam item: Name the recorded viability for C=C/C=C\C(C)C(OC(N)=O)C(C)C(O)C(C)C/C(C)=C\C(C)C(O)C(C)/C=C\C(O)CC1OC(=O)C(C)C(O)C1C (single isomer, unassigned) [Discodermolide, discodermolide] .
Marked response: < 1%
